Every entry's value here was drawn from ChEMBL document CHEMBL1142279.

Listing: Activity of selected molecules
Molecular target: RAC-beta serine/threonine-protein kinase (Homo sapiens) (UniProt P31751)
Sequence (P31751 whole entry): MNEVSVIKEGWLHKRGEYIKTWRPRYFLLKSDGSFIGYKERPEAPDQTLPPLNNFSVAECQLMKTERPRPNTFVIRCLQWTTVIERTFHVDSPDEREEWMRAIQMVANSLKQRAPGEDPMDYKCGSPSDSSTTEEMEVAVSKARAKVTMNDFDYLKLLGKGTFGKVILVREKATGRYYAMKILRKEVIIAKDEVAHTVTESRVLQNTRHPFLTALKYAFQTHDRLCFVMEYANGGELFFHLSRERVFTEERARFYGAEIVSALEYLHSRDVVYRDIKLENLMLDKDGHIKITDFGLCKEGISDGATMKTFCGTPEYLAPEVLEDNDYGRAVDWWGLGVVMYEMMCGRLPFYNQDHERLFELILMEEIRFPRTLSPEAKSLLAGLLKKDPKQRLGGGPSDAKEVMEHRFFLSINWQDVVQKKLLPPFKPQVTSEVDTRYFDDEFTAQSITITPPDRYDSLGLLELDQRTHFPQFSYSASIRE
Assay: Inhibition of Akt2 in human C33a cells
Format: cell-based
assay_metric: Activity (nM)

>>> measurement("Nc1ncnc2c1cnn2C1CCN(Cc2ccc(-c3ncc(-c4ncon4)cc3-c3ccccc3)cc2)CC1")
1060
>>> measurement("Nc1nnc(-c2cnc(-c3ccc(CN4CCC(n5ncc6c(N)ncnc65)CC4)cc3)c(-c3ccccc3)c2)s1")
416
>>> measurement("Nc1nnc(-c2cnc(-c3ccc(CN4CCC(c5cc(-c6ccccn6)[nH]n5)CC4)cc3)c(-c3ccccc3)c2)s1")
300
>>> measurement("Nc1ncnc2c1cnn2C1CCN(Cc2ccc(-c3ncc(-c4nccs4)cc3-c3ccccc3)cc2)CC1")
3240
>>> measurement("Nc1nnc(-c2cnc(-c3ccc(CN4CCC(c5n[nH]c(-c6ccccn6)n5)CC4)cc3)c(-c3ccccc3)c2)s1")
330
>>> measurement("Nc1nnc(-c2cnc(-c3ccc(CNCCC(=O)c4ccccc4N)cc3)c(-c3ccccc3)c2)s1")
472
>>> measurement("Nc1nnc(-c2cnc(-c3ccc(CN4CCC(n5c(=O)[nH]c6ncccc65)CC4)cc3)c(-c3ccccc3)c2)s1")
3960

###

Experiment: Half life in dog at 0.25 mg/kg, iv
Assay type: ADME, organism-based, Canis lupus familiaris
Parameters: dose 0.25 mg/kg, route intravenous
Details: in vivo
assay_metric: half-life (h)

>>> measurement("Nc1nnc(-c2cnc(-c3ccc(CN4CCC(n5ncc6c(N)ncnc65)CC4)cc3)c(-c3ccccc3)c2)s1")
3.62

###

Molecular target: RAC-alpha serine/threonine-protein kinase (Homo sapiens)
Test: Inhibition of human recombinant Akt1
assay_metric: Activity (nM)

>>> measurement("Nc1ncnc2c1cnn2C1CCN(Cc2ccc(-c3ncc(-c4ccccn4)cc3-c3ccccc3)cc2)CC1")
1630
>>> measurement("Nc1nnc(-c2cnc(-c3ccc(CNCCC(=O)c4ccccc4N)cc3)c(-c3ccccc3)c2)s1")
114
>>> measurement("Nc1ncnc2c1cnn2C1CCN(Cc2ccc(-c3ncc(-c4nc[nH]n4)cc3-c3ccccc3)cc2)CC1")
182
>>> measurement("Nc1ncnc2c1cnn2C1CCN(Cc2ccc(-c3ncc(-c4nccs4)cc3-c3ccccc3)cc2)CC1")
264
>>> measurement("Nc1nnc(-c2cnc(-c3ccc(CN4CCC(c5cc(-c6ccccn6)[nH]n5)CC4)cc3)c(-c3ccccc3)c2)s1")
95
>>> measurement("Nc1ncnc2c1cnn2C1CCN(Cc2ccc(-c3ncc(-c4ncccn4)cc3-c3ccccc3)cc2)CC1")
306
>>> measurement("N#Cc1cnc(-c2ccc(CN3CCC(n4c(=O)[nH]c5ccccc54)CC3)cc2)c(-c2ccccc2)c1")
762
>>> measurement("Nc1nnc(-c2cnc(-c3ccc(CN4CCC(c5n[nH]c(-c6ccccn6)n5)CC4)cc3)c(-c3ccccc3)c2)s1")
85
>>> measurement("Nc1nnc(-c2cnc(-c3ccc(CN4CCC(n5c(=O)[nH]c6ncccc65)CC4)cc3)c(-c3ccccc3)c2)s1")
434
>>> measurement("Nc1ncnc2c1cnn2C1CCN(Cc2ccc(-c3ncc(-c4ncon4)cc3-c3ccccc3)cc2)CC1")
180
>>> measurement("Nc1nnc(-c2cnc(-c3ccc(CN4CCC(n5cc(-c6ccccn6)cn5)CC4)cc3)c(-c3ccccc3)c2)s1")
214
>>> measurement("Nc1nnc(-c2cnc(-c3ccc(CN4CCC(n5cc(-c6cnccn6)cn5)CC4)cc3)c(-c3ccccc3)c2)s1")
172
>>> measurement("Nc1ncnc2c1ncn2C1CCN(Cc2ccc(-c3ncc(-c4nnn[nH]4)cc3-c3ccccc3)cc2)CC1")
210
>>> measurement("Nc1nnc(-c2cnc(-c3ccc(CN4CCC(c5cc(-c6ccncc6)[nH]n5)CC4)cc3)c(-c3ccccc3)c2)s1")
123
>>> measurement("Nc1nnc(-c2cnc(-c3ccc(CN4CCC(n5ncc6c(N)ncnc65)CC4)cc3)c(-c3ccccc3)c2)s1")
126
>>> measurement("O=c1[nH]c2ccccc2n1C1CCN(Cc2ccc(-c3ncc(-c4nnn[nH]4)cc3-c3ccccc3)cc2)CC1")
273

###

Target: RAC-alpha serine/threonine-protein kinase (Homo sapiens) (UniProt P31749)
Sequence (P31749 whole entry): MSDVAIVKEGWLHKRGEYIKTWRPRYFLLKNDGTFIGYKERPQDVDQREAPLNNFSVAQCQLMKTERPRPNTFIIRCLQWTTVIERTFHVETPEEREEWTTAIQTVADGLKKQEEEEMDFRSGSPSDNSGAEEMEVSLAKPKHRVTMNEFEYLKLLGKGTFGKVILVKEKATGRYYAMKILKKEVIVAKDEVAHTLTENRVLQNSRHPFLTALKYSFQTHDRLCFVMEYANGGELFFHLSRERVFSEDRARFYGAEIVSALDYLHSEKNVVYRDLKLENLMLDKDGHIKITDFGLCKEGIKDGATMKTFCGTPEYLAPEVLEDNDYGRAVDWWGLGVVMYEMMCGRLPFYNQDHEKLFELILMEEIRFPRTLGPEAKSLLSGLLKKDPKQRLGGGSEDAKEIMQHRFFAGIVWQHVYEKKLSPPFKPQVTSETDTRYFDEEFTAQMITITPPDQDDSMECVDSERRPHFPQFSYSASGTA
Assay: Inhibition of Akt1 in human C33a cells
Type: cell-based
assay_metric: Activity

>>> measurement("Nc1nnc(-c2cnc(-c3ccc(CNCCC(=O)c4ccccc4N)cc3)c(-c3ccccc3)c2)s1")
"618 nM"
>>> measurement("Nc1ncnc2c1ncn2C1CCN(Cc2ccc(-c3ncc(-c4nnn[nH]4)cc3-c3ccccc3)cc2)CC1")
"> 50000 nM"
>>> measurement("Nc1nnc(-c2cnc(-c3ccc(CN4CCC(c5n[nH]c(-c6ccccn6)n5)CC4)cc3)c(-c3ccccc3)c2)s1")
"516 nM"
>>> measurement("Nc1ncnc2c1cnn2C1CCN(Cc2ccc(-c3ncc(-c4ncccn4)cc3-c3ccccc3)cc2)CC1")
"1950 nM"
>>> measurement("O=c1[nH]c2ccccc2n1C1CCN(Cc2ccc(-c3ncc(-c4nnn[nH]4)cc3-c3ccccc3)cc2)CC1")
"> 50000 nM"
>>> measurement("Nc1ncnc2c1cnn2C1CCN(Cc2ccc(-c3ncc(-c4nccs4)cc3-c3ccccc3)cc2)CC1")
"1650 nM"
>>> measurement("Nc1ncnc2c1cnn2C1CCN(Cc2ccc(-c3ncc(-c4ncon4)cc3-c3ccccc3)cc2)CC1")
"288 nM"
>>> measurement("Nc1ncnc2c1cnn2C1CCN(Cc2ccc(-c3ncc(-c4nc[nH]n4)cc3-c3ccccc3)cc2)CC1")
"890 nM"
>>> measurement("Nc1nnc(-c2cnc(-c3ccc(CN4CCC(c5cc(-c6ccncc6)[nH]n5)CC4)cc3)c(-c3ccccc3)c2)s1")
"407 nM"
>>> measurement("N#Cc1cnc(-c2ccc(CN3CCC(n4c(=O)[nH]c5ccccc54)CC3)cc2)c(-c2ccccc2)c1")
"> 50000 nM"
>>> measurement("Nc1nnc(-c2cnc(-c3ccc(CN4CCC(c5cc(-c6ccccn6)[nH]n5)CC4)cc3)c(-c3ccccc3)c2)s1")
"734 nM"
>>> measurement("Nc1nnc(-c2cnc(-c3ccc(CN4CCC(n5cc(-c6cnccn6)cn5)CC4)cc3)c(-c3ccccc3)c2)s1")
"1380 nM"
>>> measurement("Nc1ncnc2c1cnn2C1CCN(Cc2ccc(-c3ncc(-c4ccccn4)cc3-c3ccccc3)cc2)CC1")
"10000 nM"
>>> measurement("Nc1nnc(-c2cnc(-c3ccc(CN4CCC(n5cc(-c6ccccn6)cn5)CC4)cc3)c(-c3ccccc3)c2)s1")
"1350 nM"
>>> measurement("Nc1nnc(-c2cnc(-c3ccc(CN4CCC(n5c(=O)[nH]c6ncccc65)CC4)cc3)c(-c3ccccc3)c2)s1")
"12600 nM"
>>> measurement("Nc1nnc(-c2cnc(-c3ccc(CN4CCC(n5ncc6c(N)ncnc65)CC4)cc3)c(-c3ccccc3)c2)s1")
"621 nM"

###

Test: Inhibition of PKC
pIC50: −log10 of the molar value.
assay_metric: pIC50

>>> measurement("Nc1nnc(-c2cnc(-c3ccc(CN4CCC(n5ncc6c(N)ncnc65)CC4)cc3)c(-c3ccccc3)c2)s1")
"< 5.00"

###

Experiment: Clearance in dog at 0.25 mg/kg, iv
Assay type: ADME, organism-based, Canis lupus familiaris
Set-up: dose 0.25 mg/kg, route intravenous
Conditions: in vivo
assay_metric: clearance

>>> measurement("Nc1nnc(-c2cnc(-c3ccc(CN4CCC(n5ncc6c(N)ncnc65)CC4)cc3)c(-c3ccccc3)c2)s1")
"0.0822 L/h/kg"

###

Target: RAC-beta serine/threonine-protein kinase (Homo sapiens) (UniProt P31751)
Experiment: Inhibition of human recombinant Akt2
assay_metric: log10 Activity (log10 of the value in nM)

>>> measurement("Nc1nnc(-c2cnc(-c3ccc(CN4CCC(n5ncc6c(N)ncnc65)CC4)cc3)c(-c3ccccc3)c2)s1")
1.34
>>> measurement("Nc1ncnc2c1cnn2C1CCN(Cc2ccc(-c3ncc(-c4ccccn4)cc3-c3ccccc3)cc2)CC1")
2.57
>>> measurement("Nc1ncnc2c1cnn2C1CCN(Cc2ccc(-c3ncc(-c4nccs4)cc3-c3ccccc3)cc2)CC1")
1.81
>>> measurement("Nc1nnc(-c2cnc(-c3ccc(CN4CCC(c5cc(-c6ccncc6)[nH]n5)CC4)cc3)c(-c3ccccc3)c2)s1")
1.58
>>> measurement("Nc1nnc(-c2cnc(-c3ccc(CN4CCC(c5cc(-c6ccccn6)[nH]n5)CC4)cc3)c(-c3ccccc3)c2)s1")
1.45
>>> measurement("N#Cc1cnc(-c2ccc(CN3CCC(n4c(=O)[nH]c5ccccc54)CC3)cc2)c(-c2ccccc2)c1")
3.50
>>> measurement("Nc1ncnc2c1cnn2C1CCN(Cc2ccc(-c3ncc(-c4ncon4)cc3-c3ccccc3)cc2)CC1")
2.08
>>> measurement("Nc1ncnc2c1cnn2C1CCN(Cc2ccc(-c3ncc(-c4nc[nH]n4)cc3-c3ccccc3)cc2)CC1")
2.00

###

Target: RAC-beta serine/threonine-protein kinase (Homo sapiens)
Assay: Inhibition of Akt2 in human C33a cells
Type: cell-based
assay_metric: Activity (nM)

>>> measurement("Nc1ncnc2c1cnn2C1CCN(Cc2ccc(-c3ncc(-c4ncccn4)cc3-c3ccccc3)cc2)CC1")
3460
>>> measurement("Nc1nnc(-c2cnc(-c3ccc(CN4CCC(n5cc(-c6cnccn6)cn5)CC4)cc3)c(-c3ccccc3)c2)s1")
2030
>>> measurement("Nc1nnc(-c2cnc(-c3ccc(CN4CCC(c5cc(-c6ccncc6)[nH]n5)CC4)cc3)c(-c3ccccc3)c2)s1")
153
>>> measurement("Nc1ncnc2c1cnn2C1CCN(Cc2ccc(-c3ncc(-c4ccccn4)cc3-c3ccccc3)cc2)CC1")
8110
>>> measurement("Nc1nnc(-c2cnc(-c3ccc(CN4CCC(n5cc(-c6ccccn6)cn5)CC4)cc3)c(-c3ccccc3)c2)s1")
1350
>>> measurement("Nc1ncnc2c1cnn2C1CCN(Cc2ccc(-c3ncc(-c4nc[nH]n4)cc3-c3ccccc3)cc2)CC1")
666
